- target_under_test: Dual specificity tyrosine-phosphorylation-regulated kinase 1A (Homo sapiens, UniProt Q13627); note: in the data inactive means no Kd found up to 30 µM
Activity calls are given as the source filed them.
Give your call using only these classes: TRUE = active, FALSE = inactive

Query: # fetch the recorded call for O=C(Cc1ccc(-c2ccc(OCCN3CCOCC3)cc2)cn1)NCc1ccccc1 here
Result: FALSE

Query: Item: CNC(=O)c1cc(Oc2ccc(NC(=O)Nc3cc(C(C)(C)C)nn3-c3ccc4ncccc4c3)c(F)c2)ccn1
Result: FALSE

Query: Item: C#Cc1cccc(Nc2ncnc3cc(OC)c(OCCCCCCC(=O)NO)cc23)c1
Result: FALSE

Query: Item: Cn1cc(-c2cnn3c(N)c(Br)c([C@@H]4CCCNC4)nc23)cn1
Result: FALSE

Query: Item: Cc1csc(-c2nnc(Nc3ccc(Oc4ncccc4-c4ccnc(N)n4)cc3)c3ccccc23)c1
Result: FALSE

Query: Item: CC(=O)c1cnc2ccc(-c3cc(Cl)c(O)c(Cl)c3)nc2c1N[C@H]1CC[C@H](CN(C)C)CC1
Result: TRUE

Query: Item: CCS(=O)(=O)c1cccc(-c2cc(C(=O)NC3CCN(C)CC3)c(C)c3[nH]c4ncc(C)cc4c23)c1
Result: FALSE

---

- target_under_test: Serine/threonine-protein kinase LATS1 (Homo sapiens); note: in the data inactive means no Kd found up to 30 µM
- Sequence (O95835 whole entry): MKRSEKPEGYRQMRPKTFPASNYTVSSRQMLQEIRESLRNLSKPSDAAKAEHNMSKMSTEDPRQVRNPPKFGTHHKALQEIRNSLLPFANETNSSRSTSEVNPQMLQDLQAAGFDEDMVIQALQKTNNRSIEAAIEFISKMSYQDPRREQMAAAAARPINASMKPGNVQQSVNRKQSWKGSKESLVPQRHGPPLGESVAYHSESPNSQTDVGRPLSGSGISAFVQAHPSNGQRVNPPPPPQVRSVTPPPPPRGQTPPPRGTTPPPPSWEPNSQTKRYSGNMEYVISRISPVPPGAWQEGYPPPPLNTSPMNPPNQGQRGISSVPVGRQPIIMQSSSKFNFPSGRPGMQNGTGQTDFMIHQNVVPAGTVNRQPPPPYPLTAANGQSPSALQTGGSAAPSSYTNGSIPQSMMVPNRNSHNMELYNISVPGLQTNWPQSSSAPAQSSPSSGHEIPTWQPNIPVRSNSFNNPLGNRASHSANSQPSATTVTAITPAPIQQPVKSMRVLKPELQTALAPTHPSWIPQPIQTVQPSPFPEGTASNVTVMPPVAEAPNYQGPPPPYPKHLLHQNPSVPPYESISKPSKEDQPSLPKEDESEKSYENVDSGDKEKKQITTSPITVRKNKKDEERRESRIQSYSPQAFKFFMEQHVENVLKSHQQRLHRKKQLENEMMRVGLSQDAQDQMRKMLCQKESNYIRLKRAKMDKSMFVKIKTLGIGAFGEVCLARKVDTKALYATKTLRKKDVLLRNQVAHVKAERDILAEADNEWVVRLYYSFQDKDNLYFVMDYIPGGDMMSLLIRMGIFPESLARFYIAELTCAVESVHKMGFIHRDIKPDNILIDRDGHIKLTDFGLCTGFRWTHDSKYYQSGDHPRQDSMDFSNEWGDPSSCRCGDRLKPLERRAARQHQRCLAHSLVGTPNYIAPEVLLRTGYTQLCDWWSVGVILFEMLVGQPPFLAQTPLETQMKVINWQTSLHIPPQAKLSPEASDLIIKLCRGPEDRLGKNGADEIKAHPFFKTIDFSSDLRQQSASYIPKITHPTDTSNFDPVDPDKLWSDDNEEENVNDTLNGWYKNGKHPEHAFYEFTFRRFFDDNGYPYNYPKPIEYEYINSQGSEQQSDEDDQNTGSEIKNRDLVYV
Activity calls are given as the source filed them.
Give your call using only these classes: active, inactive

Query: # fetch the recorded call for O=C1NC(=O)[C@@H](c2cn3c4c(cccc24)CCC3)[C@@H]1c1c[nH]c2ccccc12 [TIVANTINIB] here
Result: inactive

Query: Item: NC1(c2ccc(-c3nc4ccn5c(=O)[nH]nc5c4cc3-c3ccccc3)cc2)CCC1
Result: inactive

Query: Item: CNC(=O)c1cccc2cc(Oc3ccnc4cc(OCC5(N)CC5)c(OC)cc34)ccc12
Result: inactive

Query: Item: CNC(=O)c1cc(Oc2ccc(NC(=O)Nc3cc(C(C)(C)C)nn3-c3ccc4ncccc4c3)c(F)c2)ccn1
Result: inactive

Query: Item: Cc1cc(C(=O)NOCCO)c(Nc2ccc(I)cc2F)n(C)c1=O
Result: inactive

Query: Item: COCc1c(-c2ccc(NC(=O)Nc3cc(C(F)(F)F)ccc3F)c(F)c2)c2c(N)ncnn2c1CN1CCOCC1
Result: inactive

Query: Item: COc1cc([C@@H]2c3cc4c(cc3[C@H](O)[C@H]3COC(=O)[C@@H]23)OCO4)cc(OC)c1OC
Result: inactive

Query: Item: NC(=O)Nc1cc(-c2cccc(F)c2)sc1C(=O)N[C@H]1CCCNC1
Result: inactive

Query: Item: CNC(=O)c1nn(C)c2c1C(C)(C)Cc1cnc(Nc3ccc(N4CCN(C)CC4)cc3)nc1-2
Result: active

Query: Item: COCC(=O)NC/C=C/c1ccc2ncnc(Nc3ccc(Oc4ccc(C)nc4)c(C)c3)c2c1
Result: inactive

Query: Item: COc1c(OCCCN2CCOCC2)ccc2c1N=C(NC(=O)c1cnc(N)nc1)N1CCN=C21
Result: inactive

Query: Item: CC(=O)NCC(=O)N1[C@@H]2CC[C@H]1c1ccc(Nc3ncc(C(F)(F)F)c(NC4CCC4)n3)cc12
Result: active

Query: Item: CN(C[C@@H]1COCCO1)S(=O)(=O)Nc1ccc2ccc3ncc(-c4cnn(C)c4)cc3c(=O)c2c1
Result: inactive

Query: Item: Cc1cnc(NC(=O)Nc2cc(Br)c(C)cc2OC[C@@H]2CNCCO2)cn1
Result: inactive

Query: Item: COc1ncc(-c2ccc3nccc(-c4ccnnc4)c3c2)cc1NS(=O)(=O)c1ccc(F)cc1F
Result: inactive

Query: Item: FC(F)(F)c1ccc(/C=C/c2nc(COc3ccc(CCCCn4ccnn4)cc3)co2)cc1
Result: inactive

Query: Item: COc1cc2ncnc(Oc3cccc(NC(=O)Nc4cc(C(C)(C)C(F)(F)F)on4)c3)c2cc1OC
Result: inactive

Query: Item: O=C(Nc1c[nH]nc1-c1nc2cc(CN3CCOCC3)ccc2[nH]1)NC1CC1
Result: active

Query: Item: Cn1cnc2c(F)c(Nc3ccc(Br)cc3F)c(C(=O)NOCCO)cc21
Result: inactive

Query: Item: CC(C)c1cc(CNc2nc(Nc3cc(C4CC4)[nH]n3)cc(N3CCN(C)CC3)n2)on1
Result: inactive

Query: Item: C[C@@H](N)c1ccc(C(=O)Nc2ccnc3[nH]ccc23)cc1
Result: inactive

Query: Item: CN1C/C=C/CCOc2cccc(c2)-c2ccnc(n2)Nc2cccc(c2)C1
Result: inactive

Query: Item: CO[C@H]1C[C@@H]2CC[C@@H](C)[C@@](O)(O2)C(=O)C(=O)N2CCCC[C@H]2C(=O)O[C@H]([C@H](C)C[C@@H]2CC[C@@H](OC(=O)C(C)(CO)CO)[C@H](OC)C2)CC(=O)[C@H](C)/C=C(\C)[C@@H](O)[C@@H](OC)C(=O)[C@H](C)C[C@H](C)/C=C/C=C/C=C/1C
Result: inactive

Query: Item: C=CC(=O)N1CCC[C@H](n2c(=O)n(-c3ccc(Oc4ccccc4)cc3)c3c(N)ncnc32)C1
Result: inactive
